Give normalized growth for every item shown.
Experiment: chemical genetic growth profiling, strain panel (AID 1159580);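 also: tested at 20 µM; growth read once vehicle control cultures reached saturation at 30 °C; 1 = growth at the plate median or of vehicle wells; lower values mean less growth of the strain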
Details: S. cerevisiae deletion strains, growth OD, locus YBR229C, strain ROT2, stronger effect = lower value
The campaign covered roughly 5,500 compounds. About 2,000 (36%) were called active. About 18% were inconclusive and are not listed. This is one part of the list.
Give bare numbers.

- C/C=C/CC(C)C(O)C1C(=O)NC(CC)C(=O)N(C)CC(=O)N(C)C(CC(C)C)C(=O)NC(C(C)C)C(=O)N(C)C(CC(C)C)C(=O)NC(C)C(=O)NC(C)C(=O)N(C)C(CC(C)C)C(=O)N(C)C(CC(C)C)C(=O)N(C)C(C(C)C)C(=O)N1C (stereo not drawn): 0.972

Provide the reported normalized growth of each entry below, same order.
1. NC(=S)CS(=O)(=O)c1ccc(C(F)(F)F)cc1
2. CC1(C)S[C@@H]2[C@H](NC(=O)[C@@H](N)c3ccc(O)cc3)C(=O)N2[C@H]1C(=O)O
3. CO[C@@H]1C[C@H](O[C@H]2CC[C@]3(C)C4CC[C@]5(C)[C@@H](C6=CC(=O)OC6)CC[C@]5(O)[C@@H]4CC[C@]3(O)C2)O[C@H](C)[C@@H]1O (stereo partly drawn)
4. CC(=O)OCC(=O)[C@@]1(O)CCC2C3C[C@H](C)C4=CC(=O)C=CC4(C)C3[C@@H](O)CC21C (stereo partly drawn)

Output line:
1. 1.01
2. 1
3. 1
4. 1.01

Provide the reported normalized growth of each entry below, same order.
1. Nc1nc(/C(=C/CC(=O)O)C(=O)N[C@@H]2C(=O)N3C(C(=O)O)=CCS[C@H]23)cs1
2. Cn1c(SCc2ccccc2)nnc1-c1ccc2ncccc2c1

Output line:
1. 0.971
2. 0.997

Kindly note the recorded normalized growth for Cn1c(SCC(=O)N2CCOCC2)nnc1-c1ccc2ncccc2c1 , which is 1.01
